Test system: Bloodstream form of Trypanosoma brucei, strain Lister 427
run_description: Trypanosoma brucei growth inhibition assay (CellTiter-Glo, 24 h)
Format: cell-based
experimental_parameters: Trypanosoma brucei; T. Brucei Growth Inibition Assay, class symbols; read-out: T. Brucei GI EC50
Description: […] After an incubation period of 24 hours at 37° C., each well is added 15 μl of CellTiter-Glo® Reagent (Promega) and incubated at room temperature. 5-10 min post incubation, the plate is read using a luminometer (ViewLux®). […]
pEC50: −log10 of the molar value.
parameter_measured: pEC50

Record for `COc1ccc2nc(C(F)(F)F)n(CC(=O)N3CC[C@H](NCc4ccon4)C[C@H]3c3ncc(-c4cc5ccccc5nc4OC)[nH]3)c2c1` under target or system Bloodstream form of Trypanosoma brucei, strain Lister 427: pEC50 reported as > 7.00

Note to self: pEC50 of Cc1[nH]c2ccccc2c1CC(=O)N1CCN(CCc2ccccc2)CC1c1ncc(-c2ccc3ccccc3c2)[nH]1 (stereo not shown) with Bloodstream form of Trypanosoma brucei, strain Lister 427 was 6.00 to 6.29

Summary line: COc1ccc2nc(C)n(CC(=O)N3CCN(C4CCOC4)C[C@H]3c3ncc(-c4cc5ccccc5nc4OC)[nH]3)c2c1 (stereo partly shown) , Bloodstream form of Trypanosoma brucei, strain Lister 427, reported pEC50 = 6.30 to 7.00

Note to self: pEC50 of `COc1ccc2nc(C)n(CC(=O)N3CC[C@H](OC)C[C@H]3c3ncc(-c4cc5ccccc5nc4OC)[nH]3)c2c1` with Bloodstream form of Trypanosoma brucei, strain Lister 427 was > 7.00
